Kindly supply the reported polymerase ribozyme fitness (log ratio) values for the records listed here.
B1: TPR t1 (parent)
chain: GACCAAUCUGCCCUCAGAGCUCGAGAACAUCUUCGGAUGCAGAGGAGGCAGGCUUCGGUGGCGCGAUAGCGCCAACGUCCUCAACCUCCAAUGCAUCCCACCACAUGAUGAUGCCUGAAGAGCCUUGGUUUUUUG

- Variants of: B1
- test_summary: polymerase ribozyme fitness, log enrichment relative to wild type (log ratio); higher = more active; in vitro selection for triplet polymerase activity
Give bare numbers.

// each listed variant needs a value for polymerase ribozyme fitness (log ratio)
1. A24G C72G C94A
2. C28A A50C C72U G113A
3. C72U C86A
4. G61U U133A

Outgoing:
[-2.87, -3.3, -0.584, -0.172]

// each listed variant needs a value for polymerase ribozyme fitness (log ratio)
1. C22A G69U
2. C13U C101A
3. C11A C13A A74C
4. U7G C15U C20U
5. A26G C62U C80G G110C
6. G93C C101A C104U

Outgoing:
[-3.88, -0.869, -2.72, -1.35, -7.8, -2.05]
